Assay: in vitro
Details: Cercopithecus aethiops (monkey), Vero76 CC50
Readout Kind: CC50

Look over these answered cases.
| Compound | CC50 |
| --- | --- |
| NC(=O)c1ncn([C@@H]2O[C@H](CO)[C@@H](O)[C@H]2O)n1 [Ribavirin, reference compound] | > 100 µM |
| COc1ccc(S(=O)(=O)n2cc(CNc3ccc(Cl)cc3)c(-c3ccc(Br)cc3)n2)cc1 [8b] | > 100 µM |
| O=S(=O)(c1ccccc1)n1cc(CNc2ccc(Br)cc2)c(-c2ccc(Br)cc2)n1 [7g] | 90 µM |

Below are some compounds; for each one, tell me its CC50.
1. Cc1ccc(-c2nn(S(=O)(=O)c3ccccc3)cc2CNc2ccc(Br)cc2)cc1 [7o]
2. O=S(=O)(c1ccccc1)n1cc(CNc2ccc(Br)cc2)c(-c2ccc(Cl)cc2)n1 [7k]

> 100 µM
> 100 µM

Below are some compounds; for each one, tell me its CC50.
1. COc1ccc(S(=O)(=O)n2cc(CNc3ccc(Br)cc3)c(-c3ccc(C)cc3)n2)cc1 [8k]
2. COc1ccc(S(=O)(=O)n2cc(CNc3ccc(C)cc3)c(-c3ccc(Br)cc3)n2)cc1 [8d]
3. Cc1ccc(-c2nn(S(=O)(=O)c3ccccc3)cc2CNc2ccccc2)cc1 [7m]

1. > 100 µM
2. 100 µM
3. > 100 µM

====

Tested on: Reo-1
Assay type: cell-based, reovirus type-1
Readout Kind: EC50 (µM)
Numbers only, in µM.

Param item = C[C@@]1(O)[C@H](O)[C@@H](CO)O[C@H]1n1ccc(N)nc1=O [NM107, 2′-C-methylcitidine] ; retrieve measured EC50.
7.5

====

Tested on: BHK-21 cells
Readout Kind: CC50

Param item = C[C@@]1(O)[C@H](O)[C@@H](CO)O[C@H]1n1ccc(N)nc1=O ; retrieve measured CC50.
> 100 µM

====

System: Sb-1
Assay: microbe, parasite or virus in culture
Assay type: cell-based, Poliovirus type-1, Sabin strain
Settings: Enterovirus C, Vero 76, read-out: Sb-1 EC50
pEC50: −log10 of the molar value.
Readout Kind: pEC50

Look over these answered cases.
| Compound | pEC50 |
| --- | --- |
| O=S(=O)(c1ccccc1)n1cc(CNc2ccc(Cl)cc2)c(-c2ccc(Br)cc2)n1 | < 4.05 |
| Cc1ccc(NCc2cn(S(=O)(=O)c3ccccc3)nc2-c2ccc(Br)cc2)cc1 | < 4.03 |
| Cc1cc(CCCOc2c(C)cc(-c3noc(C(F)(F)F)n3)cc2C)on1 [Pleconaril, reference compound] | 5.70 |
| O=S(=O)(c1ccccc1)n1cc(CNc2ccc(Cl)cc2)c(-c2ccccc2)n1 | < 4.10 |
| O=S(=O)(c1ccccc1)n1cc(CNc2ccc(Br)cc2)c(-c2ccccc2)n1 | < 4.07 |
| O=S(=O)(c1ccccc1)n1cc(CNc2ccc(Br)cc2)c(-c2ccc(Br)cc2)n1 | < 4.05 |

Kindly state the measured pEC50 obtained for O=S(=O)(c1ccccc1)n1cc(CNc2ccccc2)c(-c2ccc(Br)cc2)n1 with Sb-1.
< 4.06

====

Readout Kind: melting point

| Test Smiles | melting point |
| --- | --- |
| COc1ccc(S(=O)(=O)n2cc(CNc3ccccc3)c(-c3ccc(C)cc3)n2)cc1 | 154 to 155 °C |
| COc1ccc(S(=O)(=O)n2cc(CNc3ccc(Br)cc3)c(-c3ccc(Cl)cc3)n2)cc1 | 169 to 171 °C |

Below are some molecules; for each one, tell me its melting point.
1. COc1ccc(S(=O)(=O)n2cc(CNc3ccc(Br)cc3)c(-c3ccc(C)cc3)n2)cc1
2. Cc1ccc(-c2nn(S(=O)(=O)c3ccccc3)cc2CNc2ccc(Cl)cc2)cc1
3. COc1ccc(S(=O)(=O)n2cc(CNc3ccc(C)cc3)c(-c3ccc(C)cc3)n2)cc1
4. O=S(=O)(c1ccccc1)n1cc(CNc2ccc(Br)cc2)c(-c2ccc(Cl)cc2)n1
5. COc1ccc(S(=O)(=O)n2cc(CNc3ccccc3)c(-c3ccc(Cl)cc3)n2)cc1
6. COc1ccc(S(=O)(=O)n2cc(CNc3ccc(Cl)cc3)c(-c3ccc(Br)cc3)n2)cc1
7. O=S(=O)(c1ccccc1)n1cc(CNc2ccc(Cl)cc2)c(-c2ccccc2)n1

1: 151 to 153 °C; 2: 115 °C; 3: 145 to 146 °C; 4: 142 to 143 °C; 5: 143 to 145 °C; 6: 153 to 154 °C; 7: 136 to 137 °C
